Target: Grb2 SH2 (UniProt P62993)
Sequence (P62993 whole entry, looked up, the tested form may be a part): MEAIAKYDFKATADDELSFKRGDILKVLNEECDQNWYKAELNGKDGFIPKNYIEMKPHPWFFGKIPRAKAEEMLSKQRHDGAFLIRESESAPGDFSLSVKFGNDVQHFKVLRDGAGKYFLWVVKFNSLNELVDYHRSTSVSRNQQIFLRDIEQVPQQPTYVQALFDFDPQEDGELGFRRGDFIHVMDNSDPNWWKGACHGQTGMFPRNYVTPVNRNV
Experiment: SH2 binding enrichment of the phosphorylated peptide, bacterial display (enrichment ratio); higher = better substrate or ligand; peptides without Tyr show the background;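 further: peptide library displayed on the E. coli surface as eCPX fusions, selected cells deep-sequenced, score is each peptide's frequency after selection divided by its frequency in the input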
SH2 binding enrichment overview
metric: SH2 binding enrichment

{"columns": ["sequence record", "assay value"],
 "data": [
  ["SGSFRYGSSFE [SELE_Y390_C394F]", 0.627],
  ["ATPKGYETDAS [OTC_Y223_P225T]", 0.866],
  ["EADRKYEEVAR [TPM3_Y163]", 1.08],
  ["SIKHKYVTALF [KCNH2_Y611_D609H_YF]", 0.78],
  ["WFISFYPQVIM [CTNS_Y143_S139F]", 0.684],
  ["LLKMMYLMLDN [STAT1_Y203_K201M]", 1.63],
  ["ARGMEYLAEQK [MST1R_Y1198_G1195S]", 0.741]
]}

Source: the supplement of paper PMC10065799
